Target: D3 (Homo sapiens, UniProt P35462)
Sequence (P35462 whole entry): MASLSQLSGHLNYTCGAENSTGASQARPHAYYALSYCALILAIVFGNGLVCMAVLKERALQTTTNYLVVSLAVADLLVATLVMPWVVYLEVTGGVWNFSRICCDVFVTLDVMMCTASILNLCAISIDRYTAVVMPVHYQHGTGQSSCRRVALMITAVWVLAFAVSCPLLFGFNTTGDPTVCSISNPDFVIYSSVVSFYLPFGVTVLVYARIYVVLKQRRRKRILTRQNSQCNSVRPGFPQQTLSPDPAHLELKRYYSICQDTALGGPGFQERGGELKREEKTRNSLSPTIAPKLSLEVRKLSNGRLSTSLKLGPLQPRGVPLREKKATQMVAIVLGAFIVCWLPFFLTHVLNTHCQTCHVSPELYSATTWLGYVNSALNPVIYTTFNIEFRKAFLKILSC
Assay: pKi of test compounds, D3 receptor
Assay type: binding
pKi: −log10 of the molar value.
RECORDED METRIC: pKi

In plain terms, O=C1CC2(CCCC2)CC(=O)N1CCCCN1CCN(c2nsc3ccccc23)CC1 [Tiospirone] has a documented pKi of 8.00 to 9.00

----------
Target: 5HT1D (Homo sapiens, UniProt P28221)
Sequence (P28221 whole entry, species assumed): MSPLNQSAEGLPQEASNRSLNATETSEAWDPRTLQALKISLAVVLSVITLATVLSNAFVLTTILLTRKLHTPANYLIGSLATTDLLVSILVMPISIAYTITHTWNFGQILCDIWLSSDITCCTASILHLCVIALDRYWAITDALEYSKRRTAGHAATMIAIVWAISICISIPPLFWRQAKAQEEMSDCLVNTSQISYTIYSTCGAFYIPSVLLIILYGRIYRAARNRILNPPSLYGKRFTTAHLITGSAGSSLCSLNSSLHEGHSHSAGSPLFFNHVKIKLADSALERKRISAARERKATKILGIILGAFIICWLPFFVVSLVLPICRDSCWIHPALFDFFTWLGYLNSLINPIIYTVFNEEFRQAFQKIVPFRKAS
Test: pKi of test compounds, 5HT1D receptor
Format: binding
Settings: read-out: pKi 5HT1D (converted)
RECORDED METRIC: Ki

Ki reading for NC(=O)C1(N2CCCCC2)CCN(CCCC(=O)c2ccc(F)cc2)CC1 [Pipamperone] : 100 to 1000 nM

So for O=C1NCN(c2ccccc2)C12CCN(CCCC(c1ccc(F)cc1)c1ccc(F)cc1)CC2 [Fluspirilene] , the logged Ki turned out to be > 1000 nM

Value of Ki reported for the molecule CN(C)CCOC1=Cc2ccccc2Sc2ccc(Cl)cc21 [Zotepine] is 10 to 100 nM

What the record says about O=C1NCCN1CCN1CCC(c2cn(-c3ccc(F)cc3)c3ccc(Cl)cc23)CC1 [Sertindole] : Ki is 10 to 100 nM

Lab note: CN1CC2c3ccccc3Oc3ccc(Cl)cc3C2C1 (stereo not drawn) [ORG5222] gave Ki of 1 to 10 nM

Looking up O=C1Cc2cc(CCN3CCN(c4nsc5ccccc45)CC3)c(Cl)cc2N1 [Ziprasidone] , I see its Ki listed as 1 to 10 nM
